result-type: melting point

Before answering, review these 9 worked examples.
>  <compound>
COc1ccc(C(c2ccccc2)(c2ccc(OC)cc2)C(F)(F)F)cc1

>  <melting point>
120 to 121 °C

$$$$
>  <compound>
CC1(C)CCC(C)(C)C(=O)C1=O

>  <melting point>
109 to 111 °C

$$$$
>  <compound>
CCCNC(=O)NCCc1c[nH]c2ccc(OC)cc12

>  <melting point>
79 to 80 °C

$$$$
>  <compound>
CCOC(=O)C(=CNc1ncnc2ccc(CC)cc12)C(=O)OCC

>  <melting point>
104 to 106 °C

$$$$
>  <compound>
CCN(CC)C(=O)C1CCN(Cc2cnc3cc(NC(=O)c4ccc(-c5ccc(F)cc5)cc4)c(C)cc3c2)CC1

>  <melting point>
203 °C

$$$$
>  <compound>
Cc1cc(-c2nc(C)c(C)o2)cc(C)c1O

>  <melting point>
203 to 205 °C

$$$$
>  <compound>
O=C(Nc1cccnc1)c1ccc(OC(F)F)c2oc3ccc(C(F)(F)F)cc3c12

>  <melting point>
235 to 236 °C

$$$$
>  <compound>
CSNC(=O)c1c(Cl)cccc1[Si](C)(C)C

>  <melting point>
92 to 94 °C

$$$$
>  <compound>
CC(=O)NC(CO)C(=O)c1ccccc1 (stereo not given)

>  <melting point>
115 to 117 °C

$$$$

Then there is this compound:
Per the records, this compound ( CC[C@H](C)[C@H](NS(=O)(=O)c1cccc2ccccc12)C(=O)N[C@@H](Cc1c[nH]c2ccccc12)C(=O)OC ) has melting point equal to 172 to 174 °C

---

Reported melting point values for a set of compounds

Before answering, review these 2 worked examples.
>  <compound>
O=C(NNc1ccccc1)c1ccc(F)cc1

>  <melting point>
181 to 186 °C

$$$$
>  <compound>
Cc1cc2c(cc1C(F)(F)F)NC(=O)CC(c1cccc(-c3ncoc3C)c1)=N2

>  <melting point>
241 to 242 °C

$$$$

Per the records, this compound ( CN1CCC(=O)C(C(c2ccccc2)c2ccccc2)C1 (stereo unspecified) ) has melting point equal to 127 to 128 °C

Per the records, this compound ( CCn1c(=O)c2c(nc(/C=C/c3cc(OC)ccc3OC(=O)c3ccccc3)n2C)n(CC)c1=O ) has melting point equal to 254 to 255 °C

Per the records, this compound ( OCCNc1ccc(C2CCCCC2)cc1 ) has melting point equal to 39 to 41 °C

Per the records, this compound ( COc1ccc(NS(=O)(=O)c2ccc(N3CCC(NC[C@H](O)COc4cccc5[nH]c6ccccc6c45)CC3)cc2)cc1OC ) has melting point equal to 58 to 64 °C

---

Reported melting point values for a set of molecules

Before answering, review these 8 worked examples.
>  <molecule>
CCOC(=O)c1cn(C2CC2)c2nc(N3C[C@@H](CNC(C)=O)[C@@H](Cl)C3)c(F)cc2c1=O (relative stereo)

>  <result>
213 to 214 °C

$$$$
>  <molecule>
CN1C(C(=O)Nc2cccccc2=O)=C(OC(=O)C=Cc2ccccc2)c2sccc2S1(=O)=O

>  <result>
167 to 170 °C

$$$$
>  <molecule>
COc1c(C)c(=O)oc2cc(-c3nnc(C)s3)ccc12

>  <result>
177 °C

$$$$
>  <molecule>
Cc1nn(-c2ccccn2)cc1COc1ccc(CC(=O)O)cc1

>  <result>
161 to 162 °C

$$$$
>  <molecule>
O=C1CCN(C(=S)Nc2ccc(Cl)cc2)N1c1ccccc1

>  <result>
136 to 139 °C

$$$$
>  <molecule>
O=C(NC(=O)C(c1ccccc1)c1ccccc1)OCCCc1ccncc1

>  <result>
147 to 150 °C

$$$$
>  <molecule>
O=c1oc(-c2ccccc2)cc(O)c1SCc1cccc(OCCc2ccccc2)c1

>  <result>
85 to 90 °C

$$$$
>  <molecule>
S=C(NN=Cc1cccc(-c2ccccc2Br)n1)NN1CCCC1

>  <result>
157 to 159 °C

$$$$

Per the records, this molecule ( CN1CCN(c2ccc3c(=O)c(C(=O)O)cn4c3c2CCC4)CC1 ) has melting point equal to 278 to 280 °C
